src = paper PMC11289669

target_under_test: FXR (Homo sapiens, UniProt Q96RI1)
Construct: expressed in transfected cells; host or cells: HepG2 (the text says EC50 dose-response curves were run in HEK-293T)
Sequence (Q96RI1 whole entry, species assumed): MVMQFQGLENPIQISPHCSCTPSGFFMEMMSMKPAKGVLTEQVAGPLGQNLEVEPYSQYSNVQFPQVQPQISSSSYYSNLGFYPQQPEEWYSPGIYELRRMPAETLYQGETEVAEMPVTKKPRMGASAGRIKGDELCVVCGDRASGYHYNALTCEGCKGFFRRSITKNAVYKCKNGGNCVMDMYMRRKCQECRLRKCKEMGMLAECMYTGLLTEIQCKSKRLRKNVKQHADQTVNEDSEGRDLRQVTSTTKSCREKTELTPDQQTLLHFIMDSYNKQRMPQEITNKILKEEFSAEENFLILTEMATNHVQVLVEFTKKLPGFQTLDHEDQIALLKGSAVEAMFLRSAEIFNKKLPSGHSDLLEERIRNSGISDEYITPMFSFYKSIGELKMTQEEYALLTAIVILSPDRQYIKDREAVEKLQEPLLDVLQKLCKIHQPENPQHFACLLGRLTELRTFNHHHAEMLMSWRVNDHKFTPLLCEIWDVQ
Sequence (P19793 whole entry partner, species assumed): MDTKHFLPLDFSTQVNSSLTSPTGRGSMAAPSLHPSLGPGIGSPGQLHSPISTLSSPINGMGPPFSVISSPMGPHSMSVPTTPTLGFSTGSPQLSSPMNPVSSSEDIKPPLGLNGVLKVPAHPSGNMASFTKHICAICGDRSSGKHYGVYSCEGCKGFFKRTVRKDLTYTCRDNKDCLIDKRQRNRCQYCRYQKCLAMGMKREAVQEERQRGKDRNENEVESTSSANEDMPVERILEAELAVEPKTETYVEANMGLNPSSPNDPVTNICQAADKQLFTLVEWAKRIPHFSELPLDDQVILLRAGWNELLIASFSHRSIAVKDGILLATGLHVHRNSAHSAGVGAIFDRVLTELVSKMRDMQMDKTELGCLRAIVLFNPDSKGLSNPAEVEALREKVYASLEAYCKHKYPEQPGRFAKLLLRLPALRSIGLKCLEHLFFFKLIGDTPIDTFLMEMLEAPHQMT
assay_protocol: FXR transactivation (luciferase reporter) assay in HepG2 cells
Type: cell-based
condition_parameters: HepG2 cells
Give measured EC50 for each item. Keep answers brief.
# value in nM; strip the unit string

Prompt line: Could you please provide reported EC50 for CC[C@@H]1C2C[C@H](OC(=O)C(C)(C)Oc3ccc(Cl)cc3)CC[C@]2(C)C2CC[C@@]3(C)C(CC[C@@H]3[C@H](C)CCOC(=O)C(C)(C)Oc3ccc(Cl)cc3)C2[C@@H]1O (stereo partly shown) ? Thanks!
Response line: 25000

Prompt line: Quick one: give measured EC50 for CCC1C(O)C2C3CCC(C(C)CC(=O)O)C3(C)CCC2C2(C)CCC(O)CC12 (stereo not shown) [BAR505, reference compound]
Response line: 1900

Prompt line: Check the records and state EC50 for CC[C@@H]1C2C[C@H](O)CC[C@]2(C)C2CC[C@@]3(C)C(CC[C@@H]3[C@H](C)CCOC(=O)C(C)(C)Oc3ccc(Cl)cc3)C2[C@@H]1O (stereo partly shown)
Response line: 2800

Prompt line: Give EC50 for `CC[C@H]1[C@@H](O)[C@@H]2[C@H](CC[C@]3(C)[C@@H]([C@H](C)CCO)CC[C@@H]23)[C@@]2(C)CC[C@@H](O)C[C@@H]12`
Response line: 2000
